biological target: Aryl hydrocarbon receptor (Homo sapiens) (UniProt P35869); test: ATG_Ahr_CIS: Attagene CIS-FACTORIAL HepG2 Assay for human Aryl Hydrocarbon Receptor (Ahr) (AID 2282930); settings: HepG2 AhR cis-factorial reporter transcription; actives raise or lower the signal
Sequence (P35869 whole entry, looked up): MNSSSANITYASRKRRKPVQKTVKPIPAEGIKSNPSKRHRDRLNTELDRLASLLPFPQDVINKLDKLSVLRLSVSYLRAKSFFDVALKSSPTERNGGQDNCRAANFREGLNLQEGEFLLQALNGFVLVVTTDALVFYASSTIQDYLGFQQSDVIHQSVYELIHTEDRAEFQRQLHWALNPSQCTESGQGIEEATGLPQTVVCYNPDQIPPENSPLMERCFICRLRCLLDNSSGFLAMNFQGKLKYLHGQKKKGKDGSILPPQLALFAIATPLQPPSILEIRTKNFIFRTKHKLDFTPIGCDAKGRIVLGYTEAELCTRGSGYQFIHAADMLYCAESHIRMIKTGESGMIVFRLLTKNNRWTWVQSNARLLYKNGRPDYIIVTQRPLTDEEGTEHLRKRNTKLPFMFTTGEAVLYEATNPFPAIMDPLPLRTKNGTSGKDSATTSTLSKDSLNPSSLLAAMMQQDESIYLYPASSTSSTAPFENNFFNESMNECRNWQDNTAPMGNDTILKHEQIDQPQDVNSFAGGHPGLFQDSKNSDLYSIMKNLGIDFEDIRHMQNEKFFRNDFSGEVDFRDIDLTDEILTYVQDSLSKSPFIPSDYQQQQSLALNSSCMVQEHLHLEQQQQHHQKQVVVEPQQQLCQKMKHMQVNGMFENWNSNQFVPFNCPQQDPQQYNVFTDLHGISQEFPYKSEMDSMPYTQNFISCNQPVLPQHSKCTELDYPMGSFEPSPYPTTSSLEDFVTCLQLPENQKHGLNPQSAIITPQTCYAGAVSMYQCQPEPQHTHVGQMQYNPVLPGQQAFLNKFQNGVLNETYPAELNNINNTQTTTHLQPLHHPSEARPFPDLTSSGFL
Active and inactive are the calls of the source. The calls were made as follows: active = hit-call score of the fitted dose curve at least 0.9, where 1 is the maximum; inactive = score below 0.9.
The reply should name one outcome from Y (active), N (inactive)

Example entries and their recorded answers appear below.
>>> class_assignment("CCOP(=O)(OCC)Oc1nc(Cl)c(Cl)cc1Cl")
"N"
>>> class_assignment("CC1(C)CCC(=Cc2ccc(Cl)cc2)C1(O)Cn1cncn1 (stereo unspecified)")
"N"
>>> class_assignment("CCNC(=O)NC(=O)C(C#N)=NOC")
"N"
>>> class_assignment("COCc1cnc(C2=NC(C)(C(C)C)C(=O)N2)c(C(=O)O)c1 (stereo unspecified)")
"N"
>>> class_assignment("CC(C)Oc1cccc(NC(=O)c2ccccc2C(F)(F)F)c1")
"Y"
>>> class_assignment("COP(=S)(OC)Oc1ccc([N+](=O)[O-])c(C)c1")
"N"
>>> class_assignment("COC(=O)NS(=O)(=O)c1ccc(N)cc1")
"N"
>>> class_assignment("CCC(C)n1c(=O)[nH]c(C)c(Br)c1=O (stereo unspecified)")
"N"

Write down the call the test reported for this compound. Item: CC(C)C1(C)N=C(c2ncccc2C(=O)O)NC1=O (stereo unspecified) N

Just curious, what result did CCN(CC)c1nc(C)cc(OP(=S)(OC)OC)n1 get here? Y

Assay result, entry CC(C)=CC1C(C(=O)OCc2coc(Cc3ccccc3)c2)C1(C)C (stereo unspecified) — outcome? N

Entry CS(=O)(=O)c1ccc(C(=O)C2C(=O)CCCC2=O)c([N+](=O)[O-])c1 : call = ? N

Record request — test call for CCOc1nc(C(Cl)(Cl)Cl)ns1 N

Any idea what this test logged for CN=C=S ? N

For CCN(CC)C(=O)C(C)Oc1cccc2ccccc12 (stereo unspecified) , which call appears in the assay record? Y

Hello, I am checking results. What call was entered for CC(C)N1C(=O)c2ccccc2NS1(=O)=O ? N

Per the assay record, what outcome was assigned to COC(=O)c1c(C(F)F)nc(C(F)(F)F)c(C2=NCCS2)c1CC(C)C ? Y

Lab log entry: CCCCC(C#N)(Cn1cncn1)c1ccc(Cl)cc1 (stereo unspecified) — outcome as called in the assay? N

What outcome does the record of this test show for Cc1cc(C)nc(Nc2ccccc2)n1 ? N

Assay outcome for Cn1c(-c2ccccc2)cc(-c2ccccc2)[n+]1C : what was it? N

---

assay: BSK_CASM3C_SRB: Viability Assessment in the BioMAP Diversity Plus: CASM3C Assay (AID 2283050); details: primary human coronary artery smooth muscle cells;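 also: total protein by SRB staining as cytotoxicity measure in parallel cultures; cells exposed to compound for 24 h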
Calls of active or inactive are those of the source. How the source made its calls: active means hit-call score of the fitted dose curve at least 0.9, where 1 is the maximum; inactive means score below 0.9.
Respond using exactly one of the listed classes: active, inactive

See these solved cases before continuing.
>>> class_assignment("CCN(CC)C(=O)C(C)Oc1cccc2ccccc12 (centres undefined)")
"inactive"
>>> class_assignment("Cc1c(COC(=O)[C@@H]2[C@H](/C=C(\\Cl)C(F)(F)F)C2(C)C)cccc1-c1ccccc1")
"inactive"
>>> class_assignment("Cc1nc(N(C)C)nc(OC(=O)N(C)C)c1C")
"inactive"
>>> class_assignment("CC(C)(C)C(=O)C(Oc1ccc(Cl)cc1)n1cncn1 (centres undefined)")
"inactive"
>>> class_assignment("CC(C)N1C(=O)c2ccccc2NS1(=O)=O")
"inactive"

Please state the recorded outcome for this molecule: N#CN=C1SCCN1Cc1ccc(Cl)nc1 inactive

GET /call?item= O=C1C2CC=CCC2C(=O)N1SC(Cl)(Cl)Cl (centres undefined) returns the recorded outcome of this test. active

Outcome? COC(=O)NC(=S)Nc1ccccc1NC(=S)NC(=O)OC inactive

So what was the verdict on CCCN(CC)CC1COC2(CCC(C(C)(C)C)CC2)O1 (centres undefined) in this test? inactive

---

read-out: Fatty acid synthase (Homo sapiens) (UniProt P49327); assay: LTEA_HepaRG_FASN: Life Technologies and Expression Analysis (LTEA) Assay for Fatty Acid Synthase (FASN) using HepaRG (AID 2283448); settings: mRNA level, 48 h; actives raise or lower the signal;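 as to AC50: differentiated human HepaRG liver cells in serum-free induction medium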
Sequence (P49327 whole entry, looked up): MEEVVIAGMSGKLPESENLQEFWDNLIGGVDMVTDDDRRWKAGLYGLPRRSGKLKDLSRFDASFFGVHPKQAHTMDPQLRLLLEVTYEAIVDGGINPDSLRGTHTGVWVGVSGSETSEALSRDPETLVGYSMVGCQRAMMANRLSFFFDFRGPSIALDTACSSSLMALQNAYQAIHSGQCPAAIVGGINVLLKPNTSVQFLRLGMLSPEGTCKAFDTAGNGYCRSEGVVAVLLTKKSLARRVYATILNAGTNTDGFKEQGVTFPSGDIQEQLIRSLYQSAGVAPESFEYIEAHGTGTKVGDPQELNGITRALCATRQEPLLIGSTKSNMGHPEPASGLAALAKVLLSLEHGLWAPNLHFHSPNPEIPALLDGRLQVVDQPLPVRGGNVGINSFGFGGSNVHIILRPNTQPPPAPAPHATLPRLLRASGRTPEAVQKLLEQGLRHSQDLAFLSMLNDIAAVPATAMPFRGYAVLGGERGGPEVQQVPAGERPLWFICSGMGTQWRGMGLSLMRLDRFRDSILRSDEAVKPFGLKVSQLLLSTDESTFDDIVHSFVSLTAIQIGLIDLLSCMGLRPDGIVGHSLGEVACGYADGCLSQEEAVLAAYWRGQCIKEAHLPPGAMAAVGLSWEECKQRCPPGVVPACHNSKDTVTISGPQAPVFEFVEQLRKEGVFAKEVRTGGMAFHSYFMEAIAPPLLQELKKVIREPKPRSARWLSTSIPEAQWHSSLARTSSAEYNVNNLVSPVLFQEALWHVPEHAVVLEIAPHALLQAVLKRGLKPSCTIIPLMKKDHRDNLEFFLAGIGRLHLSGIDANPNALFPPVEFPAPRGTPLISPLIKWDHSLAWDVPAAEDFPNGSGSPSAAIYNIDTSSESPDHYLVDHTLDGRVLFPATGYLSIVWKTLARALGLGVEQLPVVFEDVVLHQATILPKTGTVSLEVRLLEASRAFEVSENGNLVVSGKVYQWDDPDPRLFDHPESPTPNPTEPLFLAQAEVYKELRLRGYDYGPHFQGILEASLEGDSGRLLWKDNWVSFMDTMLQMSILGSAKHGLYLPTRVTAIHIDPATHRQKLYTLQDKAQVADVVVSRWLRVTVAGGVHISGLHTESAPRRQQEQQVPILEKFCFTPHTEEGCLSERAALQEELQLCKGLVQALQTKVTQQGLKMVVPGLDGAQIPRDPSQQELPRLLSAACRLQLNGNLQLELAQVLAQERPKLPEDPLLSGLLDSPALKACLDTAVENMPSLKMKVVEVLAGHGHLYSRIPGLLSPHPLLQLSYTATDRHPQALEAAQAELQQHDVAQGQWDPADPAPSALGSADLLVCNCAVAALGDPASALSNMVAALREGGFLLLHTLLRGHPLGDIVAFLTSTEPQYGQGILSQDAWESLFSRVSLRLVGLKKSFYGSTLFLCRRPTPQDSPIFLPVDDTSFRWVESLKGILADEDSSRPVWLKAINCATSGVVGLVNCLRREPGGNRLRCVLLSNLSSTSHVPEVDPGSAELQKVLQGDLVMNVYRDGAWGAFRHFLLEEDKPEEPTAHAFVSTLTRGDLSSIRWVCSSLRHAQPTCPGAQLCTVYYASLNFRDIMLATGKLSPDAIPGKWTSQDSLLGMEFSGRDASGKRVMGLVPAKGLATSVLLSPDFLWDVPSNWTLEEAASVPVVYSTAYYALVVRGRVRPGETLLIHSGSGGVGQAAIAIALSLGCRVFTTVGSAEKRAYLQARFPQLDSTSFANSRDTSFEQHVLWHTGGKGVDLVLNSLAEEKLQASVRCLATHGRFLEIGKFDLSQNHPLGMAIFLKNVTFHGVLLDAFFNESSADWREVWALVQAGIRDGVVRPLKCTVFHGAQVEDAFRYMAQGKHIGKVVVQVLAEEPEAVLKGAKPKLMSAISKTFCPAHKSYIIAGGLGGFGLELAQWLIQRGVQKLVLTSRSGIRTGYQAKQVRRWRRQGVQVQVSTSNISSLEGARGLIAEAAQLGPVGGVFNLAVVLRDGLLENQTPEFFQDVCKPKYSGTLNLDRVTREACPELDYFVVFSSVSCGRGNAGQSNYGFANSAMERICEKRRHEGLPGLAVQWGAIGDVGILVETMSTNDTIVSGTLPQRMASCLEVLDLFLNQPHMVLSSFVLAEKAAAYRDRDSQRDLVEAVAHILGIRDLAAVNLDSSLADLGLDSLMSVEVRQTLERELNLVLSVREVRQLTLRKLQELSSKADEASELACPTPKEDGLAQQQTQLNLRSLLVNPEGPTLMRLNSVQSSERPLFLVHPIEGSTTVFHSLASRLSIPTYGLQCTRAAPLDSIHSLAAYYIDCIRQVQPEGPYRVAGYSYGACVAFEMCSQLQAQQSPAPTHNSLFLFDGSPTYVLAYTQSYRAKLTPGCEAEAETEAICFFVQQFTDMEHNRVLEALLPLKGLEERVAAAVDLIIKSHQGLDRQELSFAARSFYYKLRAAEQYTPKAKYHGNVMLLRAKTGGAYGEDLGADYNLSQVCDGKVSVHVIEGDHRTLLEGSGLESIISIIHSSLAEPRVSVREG
Activity calls are given as the source filed them. How the source made its calls: active means hit-call score of the fitted dose curve at least 0.9, where 1 is the maximum; inactive means score below 0.9.
metric: AC50

>>> recorded_measurement("CSC(=O)c1c(C(F)F)nc(C(F)(F)F)c(C(=O)SC)c1CC(C)C")
"inactive"
>>> recorded_measurement("Cc1nc(N(C)C)nc(OC(=O)N(C)C)c1C")
"inactive"
>>> recorded_measurement("COC(=O)c1c(C(F)F)nc(C(F)(F)F)c(C2=NCCS2)c1CC(C)C")
"inactive"
>>> recorded_measurement("CCCCOCN(C(=O)CCl)c1c(CC)cccc1CC")
"inactive"
>>> recorded_measurement("CC1(C)CON(Cc2ccccc2Cl)C1=O")
"inactive"
>>> recorded_measurement("N#Cc1c[nH]cc1-c1cccc2c1OC(F)(F)O2")
"1.51 µM (active)"
>>> recorded_measurement("CCCCC(C#N)(Cn1cncn1)c1ccc(Cl)cc1 (stereo unspecified)")
"22.1 µM (active)"
>>> recorded_measurement("COP(=S)(OC)SCn1nnc2ccccc2c1=O")
"inactive"

Items follow; give AC50 for each.
1. O=C(Nc1ccccc1-c1ccc(Cl)cc1)c1cccnc1Cl
2. CC(C)NC(=O)N1CC(=O)N(c2cc(Cl)cc(Cl)c2)C1=O

1: inactive; 2: 16.2 µM (active)

Count: 6. Required value per item: AC50.
1. CCOc1cc(C(C)(C)C)ccc1C1COC(c2c(F)cccc2F)=N1 (stereo unspecified)
2. COc1cc(OC)nc(NC(=O)NS(=O)(=O)c2ncccc2OCC(F)(F)F)n1
3. OC(c1ccc(Cl)cc1)(c1ccc(Cl)cc1)C(Cl)(Cl)Cl
4. Cn1c(-c2ccccc2)cc(-c2ccccc2)[n+]1C
5. COc1cc(Cl)c(OC)cc1Cl
6. COCc1cnc(C2=NC(C)(C(C)C)C(=O)N2)c(C(=O)O)c1 (stereo unspecified)

1. inactive
2. inactive
3. 34.8 µM (active)
4. 11.7 µM (active)
5. inactive
6. inactive

Lab note: each compound below needs its AC50 filled in.
1. CC(C)Oc1cccc(NC(=O)c2ccccc2C(F)(F)F)c1
2. CCN(CC)C(=O)C(C)Oc1cccc2ccccc12 (stereo unspecified)
3. COC(=O)N(C(=O)N1CO[C@@]2(C(=O)OC)Cc3cc(Cl)ccc3C2=N1)c1ccc(OC(F)(F)F)cc1

["65.2 µM (active)", "inactive", "18.8 µM (active)"]

---

Assay: CCTE_Harrill_HTTr_Viability_MCF7: CCTE's 6-hour Cell Viability Assessment for the High-Throughput Transcriptomics (HTTr) Platform, in MCF-7 cells cultured in DMEM + 10% fetal bovine serum, Harrill Lab (AID 2284010)
Method: This is a cell-based assay that evaluates cell viability using high content imaging to evaluate membrane integrity using propidium iodide dye exclusion in a 384 well format.One of seven assay components measured from the CCTE_Harrill_HTTr_Viability assay. […] Measurements are taken at 6 hours after chemical dosing in 384-well format.The assay component endpoint CCTE_Harrill_HTTr_Viability_MCF7 was analyzed with bidirectional fitting relation to DMSO as the negative control and baseline of activity. […]
The source made the active and inactive calls. The calls were made as follows: active = hit-call score of the fitted dose curve at least 0.9, where 1 is the maximum; inactive = score below 0.9.
Please reply with one of these outcomes: active, inactive

Consider the following illustrative entries.
>>> class_assignment("CNC(=O)N(C)c1nnc(C(C)(C)C)s1")
"inactive"
>>> class_assignment("CN/C(=N\\[N+](=O)[O-])NCc1cnc(Cl)s1")
"inactive"

Outcome logged for CCNP(=S)(OC)O/C(C)=C/C(=O)OC(C)C (stereo not drawn) in this assay: inactive

So what was the verdict on OC(c1ccc(Cl)cc1)(c1ccc(Cl)cc1)C(Cl)(Cl)Cl in this test? active

Test call, this compound: CNC(=O)Oc1cccc2ccccc12 inactive

Look up the recorded call for CCC(C)n1c(=O)[nH]c(C)c(Br)c1=O (stereo not drawn) in this test. inactive

Assay result, entry CCOC(=O)C(C)OC(=O)c1cc(Oc2ccc(C(F)(F)F)cc2Cl)ccc1[N+](=O)[O-] (stereo not drawn) — outcome? inactive

// param item: CC(C)Nc1nc(Cl)nc(NC(C)C)n1 ; yields the recorded call inactive

---

tested on: rat CYP2B1, gene 24300; test: NVS_ADME_rCYP2B1: NovaScreen (NVS) CYP450-related Enzyme Activity (ADME) Assay for rat CYP2B1 (AID 2283117)
Activity calls are given as the source filed them. How the source made its calls: active means hit-call score of the fitted dose curve at least 0.9, where 1 is the maximum; inconclusive means response in the unintended direction; inactive means score below 0.9.
Field 'call' accepts active, inactive

>>> class_assignment("CC(C)C1(C)N=C(c2ncccc2C(=O)O)NC1=O (stereo unspecified)")
"inactive"

Here's the next entry for you.
Please let me know the test result on file for CC1(C)CCC(=Cc2ccc(Cl)cc2)C1(O)Cn1cncn1 (stereo unspecified) . active

---

assay: Tanguay_ZF_120hpf_EYE_legacy: (Legacy) Oregon State University Tanguay Lab 120 Hour Post-fertilization zebrafish Assay for Eye Malformation (AID 2283636);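 also: binary presence or absence of eye malformation scored by brightfield in 120 hpf larvae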
Records with an inconclusive call do not appear. The source made the active and inactive calls. Rule for the calls: active = hit-call score of the fitted dose curve at least 0.9, where 1 is the maximum; inconclusive = response in the unintended direction; inactive = score below 0.9.
Thanks in advance; please answer with one of these: Yes (active), No (inactive)

# example entries with known answers
>>> class_assignment("CCCN(CC)CC1COC2(CCC(C(C)(C)C)CC2)O1 (stereo unspecified)")
"No"
>>> class_assignment("CS(=O)(=O)c1ccc(C(=O)C2C(=O)CCCC2=O)c([N+](=O)[O-])c1")
"No"
>>> class_assignment("Nc1c(Cl)c(F)nc(OCC(=O)O)c1Cl")
"No"

As a next step, examine the molecule that follows.
Entry COP(=O)(OC)O/C(C)=C/C(=O)N(C)C : call = ? No
